Items are presented alongside their recorded MIC.
# System: Staphylococcus aureus
# Assay Overview: In vitro antibacterial activity against staphylococcus aureus smith
# Assay type: functional
Quantity Kind: MIC (µg/mL)

INSERT INTO results (molecule, system_under_test, operator, test_result) VALUES
  ('CN1CCN(c2c(F)cc3c(=O)c(C(=O)O)cn(CCF)c3c2F)CC1', 'Staphylococcus aureus', '=', 0.25),
  ('C[C@@H](O)[C@H]1C(=O)N2C(C(=O)O)=C(SCCNC=N)C[C@H]12.O', 'Staphylococcus aureus', '<', 0.0156),
  ('O=C([O-])C1=C(COC(=O)N2CCN(c3cc4c(cc3F)c(=O)c(C(=O)O)cn4C3CC3)CC2)SC2CC(=O)N12.[Na+] (stereo not drawn)', 'Staphylococcus aureus', '=', 1);

* * *

Items are presented alongside their recorded half-life.
# Assay Overview: Stability in pH 7.4 phosphate buffer at 37 degree C
# Assay type: physicochemical
Quantity Kind: half-life

INSERT INTO assay_data (compound, quantity_kind, test_result) VALUES
  ('O=C([O-])C1=C(COC(=O)N2CCN(c3cc4c(cc3F)c(=O)c(C(=O)O)cn4C3CC3)CC2)SC2CC(=O)N12.[Na+] (configuration not stated)', 'half-life', '16 h'),
  ('C[C@@H](O)[C@H]1C(=O)N2C(C(=O)[O-])=C(COC(=O)N3CCN(c4cc5c(cc4F)c(=O)c(C(=O)O)cn5C4CC4)CC3)[C@H](C)[C@H]12.[K+]', 'half-life', '5 h');

* * *

# Tested on: Staphylococcus aureus
# Assay Overview: In vitro antibacterial activity against staphylococcus aureus smith
# Assay type: functional
Items are presented alongside their recorded MIC.
Quantity Kind: MIC (µg/mL)

INSERT INTO measurements (compound_smiles, system_under_test, quantity_kind, test_result) VALUES
  ('C[C@@H](O)[C@H]1C(=O)N2C(C(=O)[O-])=C(COC(=O)c3cn(CCF)c4c(F)c(N5CCN(C)CC5)c(F)cc4c3=O)C[C@H]12.[Na+]', 'Staphylococcus aureus', 'MIC', 0.125),
  ('C[C@@H](O)[C@H]1C(=O)N2C(C(=O)[O-])=C(COC(=O)N3CCN(c4cc5c(cc4F)c(=O)c(C(=O)O)cn5C4CC4)CC3)[C@H](C)[C@H]12.[K+]', 'Staphylococcus aureus', 'MIC', 0.125),
  ('C[C@@H](O)[C@H]1C(=O)N2C(C(=O)[O-])=C(CO)[C@H](C)[C@H]12.[K+]', 'Staphylococcus aureus', 'MIC', 0.125),
  ('C[C@@H](O)[C@H]1C(=O)N2C(C(=O)[O-])=C(COC(=O)N3CCN(c4cc5c(cc4F)c(=O)c(C(=O)O)cn5C4CC4)CC3)S[C@H]12.[Na+]', 'Staphylococcus aureus', 'MIC', 0.125),
  ('C[C@@H](O)[C@H]1C(=O)N2C(C(=O)[O-])=C(CO)S[C@H]12.[Na+]', 'Staphylococcus aureus', 'MIC', 0.25),
  ('C[C@@H](O)[C@H]1C(=O)N2C(C(=O)[O-])=C(COC(=O)c3cn(CCF)c4c(F)c(N5CCN(C)CC5)c(F)cc4c3=O)S[C@H]12.[Na+]', 'Staphylococcus aureus', 'MIC', 0.125);

* * *

Items are presented alongside their recorded MIC.
# Tested on: Clostridioides difficile
# Assay Overview: In vitro antibacterial activity against Clostridium difficile 701
# Format: functional
Quantity Kind: MIC

INSERT INTO assay_data (compound_smiles, system_under_test, test_result) VALUES
  ('C[C@@H](O)[C@H]1C(=O)N2C(C(=O)O)=C(SCCNC=N)C[C@H]12.O', 'Clostridioides difficile', '4 µg/mL'),
  ('C[C@@H](O)[C@H]1C(=O)N2C(C(=O)[O-])=C(CO)S[C@H]12.[Na+]', 'Clostridioides difficile', '2 µg/mL'),
  ('C[C@@H](O)[C@H]1C(=O)N2C(C(=O)[O-])=C(COC(=O)c3cn(CCF)c4c(F)c(N5CCN(C)CC5)c(F)cc4c3=O)C[C@H]12.[Na+]', 'Clostridioides difficile', '4 µg/mL'),
  ('C[C@@H](O)[C@H]1C(=O)N2C(C(=O)[O-])=C(COC(=O)c3cn(CCF)c4c(F)c(N5CCN(C)CC5)c(F)cc4c3=O)S[C@H]12.[Na+]', 'Clostridioides difficile', '1 µg/mL'),
  ('C[C@@H](O)[C@H]1C(=O)N2C(C(=O)[O-])=C(COC(=O)N3CCN(c4cc5c(cc4F)c(=O)c(C(=O)O)cn5C4CC4)CC3)[C@H](C)[C@H]12.[K+]', 'Clostridioides difficile', '1 µg/mL'),
  ('CN1CCN(c2c(F)cc3c(=O)c(C(=O)O)cn(CCF)c3c2F)CC1', 'Clostridioides difficile', '16 µg/mL'),
  ('C[C@@H](O)[C@H]1C(=O)N2C(C(=O)[O-])=C(COC(=O)N3CCN(c4cc5c(cc4F)c(=O)c(C(=O)O)cn5C4CC4)CC3)S[C@H]12.[Na+]', 'Clostridioides difficile', '8 µg/mL');

* * *

Items are presented alongside their recorded log10 MIC.
# Test system: Streptococcus pneumoniae
# Assay Overview: In vitro antibacterial activity against streptococcus pneumoniae 6301
# Type: functional
Quantity Kind: log10 MIC (log10 of the value in µg/mL)

INSERT INTO assay_data (molecule, quantity_kind, test_result) VALUES
  ('C[C@@H](O)[C@H]1C(=O)N2C(C(=O)[O-])=C(COC(=O)c3cn(CCF)c4c(F)c(N5CCN(C)CC5)c(F)cc4c3=O)C[C@H]12.[Na+]', 'log10 MIC', -1.80),
  ('C[C@@H](O)[C@H]1C(=O)N2C(C(=O)[O-])=C(COC(=O)N3CCN(c4cc5c(cc4F)c(=O)c(C(=O)O)cn5C4CC4)CC3)S[C@H]12.[Na+]', 'log10 MIC', -1.50),
  ('O=C([O-])C1=C(COC(=O)N2CCN(c3cc4c(cc3F)c(=O)c(C(=O)O)cn4C3CC3)CC2)SC2CC(=O)N12.[Na+] (stereo not drawn)', 'log10 MIC', -0.90),
  ('C[C@@H](O)[C@H]1C(=O)N2C(C(=O)[O-])=C(COC(=O)N3CCN(c4cc5c(cc4F)c(=O)c(C(=O)O)cn5C4CC4)CC3)[C@H](C)[C@H]12.[K+]', 'log10 MIC', -1.50),
  ('CN1CCN(c2c(F)cc3c(=O)c(C(=O)O)cn(CCF)c3c2F)CC1', 'log10 MIC', 0.60),
  ('C[C@@H](O)[C@H]1C(=O)N2C(C(=O)[O-])=C(CO)[C@H](C)[C@H]12.[K+]', 'log10 MIC', -1.20);

* * *

Items are presented alongside their recorded half-life.
# Assay Overview: Stability in pH 7.4 phosphate buffer at 37 degree C.
# Type: physicochemical
Quantity Kind: half-life (h)

INSERT INTO measurements (compound_smiles, test_result) VALUES
  ('C[C@@H](O)[C@H]1C(=O)N2C(C(=O)[O-])=C(COC(=O)c3cn(CCF)c4c(F)c(N5CCN(C)CC5)c(F)cc4c3=O)C[C@H]12.[Na+]', 11),
  ('C[C@@H](O)[C@H]1C(=O)N2C(C(=O)[O-])=C(COC(=O)c3cn(CCF)c4c(F)c(N5CCN(C)CC5)c(F)cc4c3=O)S[C@H]12.[Na+]', 52);

* * *

Items are presented alongside their recorded MIC.
# Tested on: Escherichia coli
# Assay Overview: In vitro antibacterial activity against Escherichia coli 257
# Format: functional
Quantity Kind: MIC

INSERT INTO results (compound, test_result) VALUES
  ('C[C@@H](O)[C@H]1C(=O)N2C(C(=O)[O-])=C(CO)[C@H](C)[C@H]12.[K+]', '0.5 µg/mL'),
  ('C[C@@H](O)[C@H]1C(=O)N2C(C(=O)[O-])=C(COC(=O)c3cn(CCF)c4c(F)c(N5CCN(C)CC5)c(F)cc4c3=O)S[C@H]12.[Na+]', '0.25 µg/mL'),
  ('C[C@@H](O)[C@H]1C(=O)N2C(C(=O)[O-])=C(COC(=O)N3CCN(c4cc5c(cc4F)c(=O)c(C(=O)O)cn5C4CC4)CC3)S[C@H]12.[Na+]', '0.0625 µg/mL'),
  ('CN1CCN(c2c(F)cc3c(=O)c(C(=O)O)cn(CCF)c3c2F)CC1 [FLEROXACIN]', '0.0313 µg/mL'),
  ('O=C([O-])C1=C(COC(=O)N2CCN(c3cc4c(cc3F)c(=O)c(C(=O)O)cn4C3CC3)CC2)SC2CC(=O)N12.[Na+] (centres undefined)', '0.25 µg/mL'),
  ('C[C@@H](O)[C@H]1C(=O)N2C(C(=O)[O-])=C(COC(=O)c3cn(CCF)c4c(F)c(N5CCN(C)CC5)c(F)cc4c3=O)C[C@H]12.[Na+]', '0.125 µg/mL'),
  ('C[C@@H](O)[C@H]1C(=O)N2C(C(=O)[O-])=C(COC(=O)N3CCN(c4cc5c(cc4F)c(=O)c(C(=O)O)cn5C4CC4)CC3)[C@H](C)[C@H]12.[K+]', '< 0.0156 µg/mL'),
  ('C[C@@H](O)[C@H]1C(=O)N2C(C(=O)[O-])=C(CO)S[C@H]12.[Na+]', '4 µg/mL'),
  ('C[C@@H](O)[C@H]1C(=O)N2C(C(=O)O)=C(SCCNC=N)C[C@H]12.O', '0.125 µg/mL');
